methodNotes: Tmax in Wistar rat at 10 mg/kg, po
Format: ADME, organism-based
Parameters: dose 10 mg/kg, route oral
conditions: in vivo
resultType: Tmax (h)
# output: bare number, implied unit h

Name the reported Tmax value associated with the molecule CC(=O)c1ccc(-c2sc(NC(=O)NCCC(=O)NC(C)(C)C)nc2C)cc1
0.5

Can you share its Tmax? I mean this molecule: Cc1cc(NC(=O)CCNC(=O)Nc2nc(C)c(-c3ccc(-n4cccn4)cc3)s2)no1
8

Can you look up the measured Tmax of Cc1nc(NC(=O)N2CCC[C@H]2C(N)=O)sc1-c1ccc(-n2cccn2)cc1 for me?
4

* * *

methodNotes: Clearance in Wistar rat at 5 mg/kg, po
Format: ADME, organism-based
Parameters: dose 5 mg/kg, route oral
conditions: in vivo
resultType: CL/F (mL/min/kg)
Give a bare numeral; the unit mL/min/kg is implied.

Endpoint output: CL/F of CCn1nnc(CCNC(=O)Nc2nc(C)c(-c3ccc(S(C)(=O)=O)c(F)c3)s2)n1 . Value?
4

* * *

system: Phosphatidylinositol 4,5-bisphosphate 3-kinase catalytic subunit beta isoform (Homo sapiens, UniProt P42338)
Sequence (P42338 whole entry, canonical isoform): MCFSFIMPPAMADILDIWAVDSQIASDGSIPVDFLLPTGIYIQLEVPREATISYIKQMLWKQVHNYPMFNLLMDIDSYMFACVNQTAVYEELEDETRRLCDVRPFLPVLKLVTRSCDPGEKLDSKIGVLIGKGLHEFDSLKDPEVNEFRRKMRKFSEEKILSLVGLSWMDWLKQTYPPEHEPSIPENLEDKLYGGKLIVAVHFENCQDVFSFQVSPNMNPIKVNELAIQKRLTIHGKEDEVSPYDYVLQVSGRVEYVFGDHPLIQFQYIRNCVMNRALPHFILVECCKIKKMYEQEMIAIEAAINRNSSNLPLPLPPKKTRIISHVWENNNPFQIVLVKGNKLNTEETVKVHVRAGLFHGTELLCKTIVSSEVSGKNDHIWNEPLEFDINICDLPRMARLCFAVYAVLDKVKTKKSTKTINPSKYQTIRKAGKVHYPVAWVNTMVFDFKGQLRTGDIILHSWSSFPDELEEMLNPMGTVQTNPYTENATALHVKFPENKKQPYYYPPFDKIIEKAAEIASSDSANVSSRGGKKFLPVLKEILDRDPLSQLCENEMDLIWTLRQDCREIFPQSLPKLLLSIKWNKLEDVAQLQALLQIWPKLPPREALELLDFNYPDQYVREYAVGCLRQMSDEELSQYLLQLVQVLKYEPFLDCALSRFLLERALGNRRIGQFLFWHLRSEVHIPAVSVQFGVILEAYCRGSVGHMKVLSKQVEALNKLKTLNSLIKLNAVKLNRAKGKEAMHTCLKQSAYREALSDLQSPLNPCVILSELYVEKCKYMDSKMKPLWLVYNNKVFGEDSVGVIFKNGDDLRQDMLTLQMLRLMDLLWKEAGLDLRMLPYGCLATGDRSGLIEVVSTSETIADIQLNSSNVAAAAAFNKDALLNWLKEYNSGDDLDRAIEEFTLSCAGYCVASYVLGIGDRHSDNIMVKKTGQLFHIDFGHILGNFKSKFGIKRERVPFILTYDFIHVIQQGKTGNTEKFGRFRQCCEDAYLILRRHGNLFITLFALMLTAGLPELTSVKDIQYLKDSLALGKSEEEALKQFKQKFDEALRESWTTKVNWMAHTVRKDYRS
methodNotes: Inhibition of recombinant GST-tagged PI3K p110beta using [32P]ATP after 60 mins by scintillation proximity assay
Range-based classes on measured Ki: interval 1 (below 400 nM), interval 2 (400 nM to below 1000 nM), interval 3 (1000 nM or more)

Kindly state the category for this molecule: CC(=O)Nc1nc(C)c(-c2ccc(S(N)(=O)=O)cc2)s1
interval 3

Please classify: Cc1nc(NC(=O)N2CCC[C@H]2C(N)=O)sc1-c1ccc(-n2cccn2)cc1
interval 3

Class (by measured Ki) for Cc1nc(NC(=O)N2CCC[C@H]2C(N)=O)sc1-c1ccc(S(C)(=O)=O)cc1
interval 3

Would you mind sorting CC(=O)c1ccc(-c2sc(NC(=O)NCCC(=O)NC(C)(C)C)nc2C)cc1 into the appropriate category?
interval 1

Kindly state the category for this molecule: CC(=O)Nc1nc(C)c(-c2ccc(S(C)(=O)=O)c(Cl)c2)s1
interval 3

Tag the class for Cc1cc(NC(=O)CCNC(=O)Nc2nc(C)c(-c3ccc(-n4cccn4)cc3)s2)no1
interval 1

Returns: class label. Input: Cc1cc(NC(=O)CCNC(=O)Nc2nc(C)c(-c3ccc(S(C)(=O)=O)c(F)c3)s2)no1
interval 2

Class (by measured Ki) for CC(=O)Nc1nc(C)c(-c2ccc(S(C)(=O)=O)cc2)s1
interval 3

Returns: class label. Input: CC(=O)Nc1nc(C)c(-c2ccc(S(C)(=O)=O)c(C#N)c2)s1
interval 2

* * *

system: Phosphatidylinositol 4,5-bisphosphate 3-kinase catalytic subunit delta isoform (Homo sapiens, UniProt O00329)
Sequence (O00329 whole entry, canonical isoform): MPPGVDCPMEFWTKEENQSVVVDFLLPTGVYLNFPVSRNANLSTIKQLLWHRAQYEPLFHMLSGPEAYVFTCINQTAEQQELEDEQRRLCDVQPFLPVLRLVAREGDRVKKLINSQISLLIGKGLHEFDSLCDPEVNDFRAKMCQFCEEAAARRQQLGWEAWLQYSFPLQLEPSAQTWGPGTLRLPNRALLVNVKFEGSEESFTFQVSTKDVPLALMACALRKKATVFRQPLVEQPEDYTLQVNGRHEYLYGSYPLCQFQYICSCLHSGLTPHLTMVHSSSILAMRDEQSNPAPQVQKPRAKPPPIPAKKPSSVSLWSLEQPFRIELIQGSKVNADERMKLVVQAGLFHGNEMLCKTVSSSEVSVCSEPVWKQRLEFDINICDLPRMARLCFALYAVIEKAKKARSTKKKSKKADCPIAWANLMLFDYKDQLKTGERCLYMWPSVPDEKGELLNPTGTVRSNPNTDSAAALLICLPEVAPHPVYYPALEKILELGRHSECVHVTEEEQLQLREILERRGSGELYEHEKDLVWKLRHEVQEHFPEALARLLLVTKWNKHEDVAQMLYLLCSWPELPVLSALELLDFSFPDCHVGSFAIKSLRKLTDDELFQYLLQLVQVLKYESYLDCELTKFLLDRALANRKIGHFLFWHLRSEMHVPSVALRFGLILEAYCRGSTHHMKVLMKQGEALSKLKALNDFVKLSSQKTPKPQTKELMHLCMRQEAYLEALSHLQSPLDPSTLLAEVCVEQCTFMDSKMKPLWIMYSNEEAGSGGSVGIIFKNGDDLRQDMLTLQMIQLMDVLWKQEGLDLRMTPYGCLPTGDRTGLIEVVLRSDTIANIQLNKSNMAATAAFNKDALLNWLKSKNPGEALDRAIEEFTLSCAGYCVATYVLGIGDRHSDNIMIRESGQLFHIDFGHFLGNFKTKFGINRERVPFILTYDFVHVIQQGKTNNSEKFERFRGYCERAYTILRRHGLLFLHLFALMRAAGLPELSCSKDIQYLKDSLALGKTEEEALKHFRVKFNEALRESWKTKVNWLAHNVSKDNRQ
methodNotes: Inhibition of recombinant GST-tagged PI3K p110delta using [32P]ATP after 60 mins by scintillation proximity assay
Exam item: assign 1.0 to entries whose Ki is below 200 nM and 0.0 to entries at or above 200 nM. Note that a value of exactly 200 nM receives 0.0.

Lab note: confirm whether the reported Ki for this compound is below 200 nM, equality not counting. compound: Cc1nc(NC(=O)N2CCC[C@H]2C(N)=O)sc1-c1ccc(S(C)(=O)=O)c(C(F)(F)F)c1
0.0

Identify whether the compound Cc1cc(NC(=O)CCNC(=O)Nc2nc(C)c(-c3ccc(S(C)(=O)=O)c(F)c3)s2)no1 records Ki below 200 nM.
1.0

State whether 200 nM exceeds Ki recorded for Cc1nc(NC(=O)N2CCC[C@H]2C(N)=O)sc1-c1ccc(-n2cccn2)cc1 .
0.0

Strictly below 200 nM in Ki? Cc1nc(NC(=O)NCCC(=O)OC(C)(C)C)sc1-c1ccc(S(C)(=O)=O)c(F)c1
0.0

Dear colleague, could you confirm whether Ki of CC(=O)Nc1nc(C)c(-c2ccc(S(C)(=O)=O)c(Cl)c2)s1 falls below 200 nM? Thanks.
1.0

* * *

system: Phosphatidylinositol 4,5-bisphosphate 3-kinase catalytic subunit delta isoform (Homo sapiens, UniProt O00329)
methodNotes: Inhibition of recombinant GST-tagged PI3K p110delta by KinaseGlo assay
resultType: pIC50
Conceptually, pIC50 converts a concentration in mol/L into minus its log10.

For the compound shown here, NC(=O)[C@@H]1CCCN1C(=O)Nc1nc2ccc(-c3cnc(N)c(C(F)(F)F)c3)cc2s1 , give the reported pIC50.
6.27

* * *

system: Phosphatidylinositol 4,5-bisphosphate 3-kinase catalytic subunit beta isoform (Homo sapiens, UniProt P42338)
methodNotes: Inhibition of recombinant GST-tagged PI3K p110beta by KinaseGlo assay
resultType: pIC50
Scale note: pIC50 = -log10(concentration in M).

Which pIC50 is listed for NC(=O)[C@@H]1CCCN1C(=O)Nc1nc2ccc(-c3cnc(N)c(C(F)(F)F)c3)cc2s1 ?
5.53

* * *

methodNotes: Oral bioavailability in Wistar rat at 10 mg/kg
Format: ADME, organism-based
conditions: in vivo
resultType: bioavailability
Your answer should be a number followed by the unit of measure.

I'd like to know its bioavailability. The compound in question is CC(=O)c1ccc(-c2sc(NC(=O)NCCC(=O)NC(C)(C)C)nc2C)cc1
57%

Can you share its bioavailability? I mean this compound: Cc1cc(NC(=O)CCNC(=O)Nc2nc(C)c(-c3ccc(-n4cccn4)cc3)s2)no1
3%

Using the record for Cc1nc(NC(=O)N2CCC[C@H]2C(N)=O)sc1-c1ccc(-n2cccn2)cc1 , report its bioavailability.
21%

* * *

methodNotes: Half life in Wistar rat at 10 mg/kg, po
Type: ADME, organism-based
Design: dose 10 mg/kg, route oral
conditions: in vivo
Please respond with reported half-life for every item in the list.
# value in min; strip the unit string

Would you kindly share the measured half-life for CC(=O)c1ccc(-c2sc(NC(=O)NCCC(=O)NC(C)(C)C)nc2C)cc1 ?
48

Quick check: half-life of Cc1cc(NC(=O)CCNC(=O)Nc2nc(C)c(-c3ccc(-n4cccn4)cc3)s2)no1 ?
36

Request the reported half-life associated with Cc1nc(NC(=O)N2CCC[C@H]2C(N)=O)sc1-c1ccc(-n2cccn2)cc1
42

* * *

methodNotes: Half life in Wistar rat at 5 mg/kg, po
Assay type: ADME, organism-based
Parameters: dose 5 mg/kg, route oral
conditions: in vivo
resultType: half-life (min)
Quick reminder: number only, in min, skip the unit.

Any idea what its half-life is? The compound is CCn1nnc(CCNC(=O)Nc2nc(C)c(-c3ccc(S(C)(=O)=O)c(F)c3)s2)n1
108

* * *

methodNotes: AUC in Wistar rat at 5 mg/kg, po
Format: ADME, organism-based
Set-up: dose 5 mg/kg, route oral
conditions: plasma
resultType: AUC (µM·h)
Your answer should be a plain number; it is taken to be in µM·h.

Entry CCn1nnc(CCNC(=O)Nc2nc(C)c(-c3ccc(S(C)(=O)=O)c(F)c3)s2)n1 has what AUC?
4.31

* * *

Can you tell me Cmax for the items I'm about to list?
methodNotes: Cmax in Wistar rat at 10 mg/kg, po
Format: ADME, organism-based
Set-up: dose 10 mg/kg, route oral
conditions: in vivo
Write the value in nM as a bare number.

Suppose we examine the compound Cc1cc(NC(=O)CCNC(=O)Nc2nc(C)c(-c3ccc(-n4cccn4)cc3)s2)no1 ; what Cmax value has been reported?
50

Fill in the blank: the reported Cmax of CC(=O)c1ccc(-c2sc(NC(=O)NCCC(=O)NC(C)(C)C)nc2C)cc1 is ____.
1720

Given Cc1nc(NC(=O)N2CCC[C@H]2C(N)=O)sc1-c1ccc(-n2cccn2)cc1 , state its recorded Cmax.
280

* * *

methodNotes: Tmax in Wistar rat at 5 mg/kg, po
Assay type: ADME, organism-based
Set-up: dose 5 mg/kg, route oral
conditions: in vivo
resultType: Tmax

Tmax for CCn1nnc(CCNC(=O)Nc2nc(C)c(-c3ccc(S(C)(=O)=O)c(F)c3)s2)n1 ?
1 h

* * *

Exercise: for every item that follows, state its recorded pKi.
system: Phosphatidylinositol 4,5-bisphosphate 3-kinase catalytic subunit beta isoform (Homo sapiens, UniProt P42338)
methodNotes: Inhibition of recombinant GST-tagged PI3K p110beta using [32P]ATP after 60 mins by scintillation proximity assay
# log scale: pKi equals minus log10 of the concentration in mol/L

// query pKi value for entry CC(=O)Nc1nc(C)c(-c2ccc(S(C)(=O)=O)c(C(F)(F)F)c2)s1
6.06

What measured pKi goes with CC(=O)Nc1nc(C)c(-c2ccc(S(C)(=O)=O)c(Br)c2)s1 ?
6.26

Please report the recorded pKi for Cc1nc(NC(=O)NCCC(=O)OC(C)(C)C)sc1-c1ccc(S(C)(=O)=O)c(F)c1 .
7.05

Which pKi is reported for this compound? CC(=O)Nc1nc(C)c(-c2ccc(C(C)=O)cc2)s1
5.71

Consider the compound shown here: CCn1nnc(CCNC(=O)Nc2nc(C)c(-c3ccc(S(C)(=O)=O)c(F)c3)s2)n1 What is its recorded pKi?
6.49

Every entry's value here was drawn from ChEMBL document CHEMBL2069199.
